Each record here notes measured viability, T/C.
- System: 192522-019-R-J2-PDC complex tumor spheroid viability
- Experiment Notes: Anticancer human tumor 192522-019-R-J2-PDC patient-derived colon adenocarcinoma cell line growth inhibition [POLQ]
- Test Settings: second compound 0.0316 µM; first compound 0.00316 µM; stronger effect = lower value
Observation Type: viability, T/C (%)

{"Compound": "C=CCn1c(=O)c2cnc(Nc3ccc(N4CCN(C)CC4)cc3)nc2n1-c1cccc(C(C)(C)O)n1 + COC1C(OC(N)=O)C(O)C(Oc2ccc3c(O)c(NC(=O)c4ccc(O)c(CC=C(C)C)c4)c(=O)oc3c2C)OC1(C)C", "Target Entity": "192522-019-R-J2-PDC complex tumor spheroid viability", "Observed Result": 108}
{"Compound": "Cn1ncnc1[C@H]1c2n[nH]c(=O)c3cc(F)cc(c23)N[C@@H]1c1ccc(F)cc1 + Nc1ccc(C#CCN(C(=O)Cc2ncc(C(F)(F)F)cc2C(F)(F)F)c2ccc(F)cc2)nn1", "Target Entity": "192522-019-R-J2-PDC complex tumor spheroid viability", "Observed Result": 101}
{"Compound": "COc1cccc(OCCCN)c1-c1cc(Nc2cnc(C#N)cn2)n[nH]1 + COC1C(OC(N)=O)C(O)C(Oc2ccc3c(O)c(NC(=O)c4ccc(O)c(CC=C(C)C)c4)c(=O)oc3c2C)OC1(C)C", "Target Entity": "192522-019-R-J2-PDC complex tumor spheroid viability", "Observed Result": 96}
{"Compound": "CCc1c2c(nc3ccc(O)cc13)-c1cc3c(c(=O)n1C2)COC(=O)[C@]3(O)CC + Nc1ccc(C#CCN(C(=O)Cc2ncc(C(F)(F)F)cc2C(F)(F)F)c2ccc(F)cc2)nn1", "Target Entity": "192522-019-R-J2-PDC complex tumor spheroid viability", "Observed Result": 92.1}

* * *

- System: 192522-019-R-J2-PDC complex tumor spheroid viability
- Experiment Notes: Anticancer human tumor 192522-019-R-J2-PDC cell line growth inhibition [POLQ];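 also: spheroids exposed to drugs for seven days before reading; 100% = DMSO vehicle control viability in luminescence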
- Test Settings: second compound 0.316 µM; first compound 3.16 µM; stronger effect = lower value
Please respond with met when measured viability, T/C is strictly beneath 80%, and with not met in all other cases.

{"Compound": "CCc1cc2c(N3CCc4c(cc(Cn5ccnc5)cc4-c4cn(C)nc4C(F)(F)F)C3=O)cc(C)nc2c(OC)n1 + Cc1cccc(N(C)C(=O)C2C(O)CCN2c2nc(C)cc(C(F)(F)F)c2C#N)c1", "Qualitative Label": "not met"}
{"Compound": "CCCS(=O)(=O)Nc1ccc(F)c(C(=O)c2c[nH]c3ncc(-c4ccc(Cl)cc4)cc23)c1F + COC1C(OC(N)=O)C(O)C(Oc2ccc3c(O)c(NC(=O)c4ccc(O)c(CC=C(C)C)c4)c(=O)oc3c2C)OC1(C)C", "Qualitative Label": "not met"}
{"Compound": "CC1COCCN1c1cc(-c2ccnn2C)c2ccnc(-c3ccn[nH]3)c2n1 (stereo not given) + Cc1cccc(N(C)C(=O)C2C(O)CCN2c2nc(C)cc(C(F)(F)F)c2C#N)c1", "Qualitative Label": "met"}
{"Compound": "O=C(c1cc(Cc2n[nH]c(=O)c3ccccc23)ccc1F)N1CCN(C(=O)C2CC2)CC1 + Nc1ccc(C#CCN(C(=O)Cc2ncc(C(F)(F)F)cc2C(F)(F)F)c2ccc(F)cc2)nn1", "Qualitative Label": "not met"}

* * *

Each record here notes measured viability, T/C.
- Tested on: 192522-019-R-J2-PDC complex tumor spheroid viability
- Experiment Notes: Anticancer human tumor 192522-019-R-J2-PDC cell line growth inhibition [POLQ];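 also: spheroids exposed to drugs for seven days before reading; 100% = DMSO vehicle control viability in luminescence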
- Test Settings: second compound 10 µM; first compound 0.0316 µM; stronger effect = lower value
Observation Type: viability, T/C (%)

{"Compound": "O=C(Nc1ccc(O)c(NS(=O)(=O)c2ccc(F)cc2)c1)c1ccc(-c2ccccc2)cc1 + Cc1cccc(N(C)C(=O)C2C(O)CCN2c2nc(C)cc(C(F)(F)F)c2C#N)c1", "Observation Type": "viability, T/C", "Measurement Unit": "%", "Observed Result": 114}
{"Compound": "O=C(c1cc(Cc2n[nH]c(=O)c3ccccc23)ccc1F)N1CCN(C(=O)C2CC2)CC1 + Cc1cccc(N(C)C(=O)C2C(O)CCN2c2nc(C)cc(C(F)(F)F)c2C#N)c1", "Observation Type": "viability, T/C", "Measurement Unit": "%", "Observed Result": 99.9}
{"Compound": "CCc1c2c(nc3ccc(O)cc13)-c1cc3c(c(=O)n1C2)COC(=O)[C@]3(O)CC + Cc1cccc(N(C)C(=O)C2C(O)CCN2c2nc(C)cc(C(F)(F)F)c2C#N)c1", "Observation Type": "viability, T/C", "Measurement Unit": "%", "Observed Result": 68.8}
{"Compound": "COc1ccc([C@@H](O)c2cc(-c3ncnc4cc(N5CCOCC5)ccc34)c(F)cc2Cl)nn1 + Nc1ccc(C#CCN(C(=O)Cc2ncc(C(F)(F)F)cc2C(F)(F)F)c2ccc(F)cc2)nn1", "Observation Type": "viability, T/C", "Measurement Unit": "%", "Observed Result": 104}
{"Compound": "C=CC(=O)N1CCN(c2nc(=O)n(-c3c(C)ccnc3C(C)C)c3nc(-c4c(O)cccc4F)c(F)cc23)C(C)C1 (stereo not given) + Cc1cccc(N(C)C(=O)C2C(O)CCN2c2nc(C)cc(C(F)(F)F)c2C#N)c1", "Observation Type": "viability, T/C", "Measurement Unit": "%", "Observed Result": 107}

* * *

- Test system: 192522-019-R-J2-PDC complex tumor spheroid viability
- Experiment Notes: Anticancer human tumor 192522-019-R-J2-PDC cell line growth inhibition [POLQ];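 also: spheroids exposed to drugs for seven days before reading; 100% = DMSO vehicle control viability in luminescence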
- Test Settings: second compound 0.316 µM; first compound 10 µM; stronger effect = lower value
Please respond with true when measured viability, T/C is strictly beneath 60%, and with false in all other cases.

{"Compound": "CCc1cc2c(N3CCc4c(cc(Cn5ccnc5)cc4-c4cn(C)nc4C(F)(F)F)C3=O)cc(C)nc2c(OC)n1 + COC1C(OC(N)=O)C(O)C(Oc2ccc3c(O)c(NC(=O)c4ccc(O)c(CC=C(C)C)c4)c(=O)oc3c2C)OC1(C)C", "Qualitative Label": "false"}
{"Compound": "CNCc1ccc(-c2[nH]c3cc(F)cc4c3c2CCNC4=O)cc1 + COC1C(OC(N)=O)C(O)C(Oc2ccc3c(O)c(NC(=O)c4ccc(O)c(CC=C(C)C)c4)c(=O)oc3c2C)OC1(C)C", "Qualitative Label": "false"}
{"Compound": "CC(C)n1c(=O)n(C)c2cnc3cc(F)c(-c4ccc(OCCCN5CCCCC5)nc4)cc3c21 + Nc1ccc(C#CCN(C(=O)Cc2ncc(C(F)(F)F)cc2C(F)(F)F)c2ccc(F)cc2)nn1", "Qualitative Label": "false"}
{"Compound": "COc1cc2cc(C(=O)CCC(=O)O)sc2cc1OC + COC1C(OC(N)=O)C(O)C(Oc2ccc3c(O)c(NC(=O)c4ccc(O)c(CC=C(C)C)c4)c(=O)oc3c2C)OC1(C)C", "Qualitative Label": "false"}
{"Compound": "COc1cccc2c1C(=O)c1c(O)c3c(c(O)c1C2=O)CC(O)(C(=O)CO)CC3OC1CC(N)C(O)C(C)O1 (stereo unspecified) + Nc1ccc(C#CCN(C(=O)Cc2ncc(C(F)(F)F)cc2C(F)(F)F)c2ccc(F)cc2)nn1", "Qualitative Label": "false"}
{"Compound": "O=C(c1cc(Cc2n[nH]c(=O)c3ccccc23)ccc1F)N1CCN(C(=O)C2CC2)CC1 + Cc1cccc(N(C)C(=O)C2C(O)CCN2c2nc(C)cc(C(F)(F)F)c2C#N)c1", "Qualitative Label": "false"}
{"Compound": "COc1cc2cc(C(=O)CCC(=O)O)sc2cc1OC + Cc1cccc(N(C)C(=O)C2C(O)CCN2c2nc(C)cc(C(F)(F)F)c2C#N)c1", "Qualitative Label": "false"}
{"Compound": "CC1COCCN1c1cc(C2(S(C)(=N)=O)CC2)nc(-c2ccnc3[nH]ccc23)n1 (stereo unspecified) + Nc1ccc(C#CCN(C(=O)Cc2ncc(C(F)(F)F)cc2C(F)(F)F)c2ccc(F)cc2)nn1", "Qualitative Label": "true"}
{"Compound": "CC1COCCN1c1cc(C2(S(C)(=N)=O)CC2)nc(-c2ccnc3[nH]ccc23)n1 (stereo unspecified) + COC1C(OC(N)=O)C(O)C(Oc2ccc3c(O)c(NC(=O)c4ccc(O)c(CC=C(C)C)c4)c(=O)oc3c2C)OC1(C)C", "Qualitative Label": "true"}
{"Compound": "O=C(Nc1ccc(O)c(NS(=O)(=O)c2ccc(F)cc2)c1)c1ccc(-c2ccccc2)cc1 + Nc1ccc(C#CCN(C(=O)Cc2ncc(C(F)(F)F)cc2C(F)(F)F)c2ccc(F)cc2)nn1", "Qualitative Label": "false"}
{"Compound": "CC1COCCN1c1cc(C2(O)CC3CCC(C2)O3)c2cnn(-c3ccn[nH]3)c2n1 (stereo unspecified) + COC1C(OC(N)=O)C(O)C(Oc2ccc3c(O)c(NC(=O)c4ccc(O)c(CC=C(C)C)c4)c(=O)oc3c2C)OC1(C)C", "Qualitative Label": "true"}
